tested on: SNB-75 CNS; assay: NCI tumour cell line growth inhibition, 48 h
quantity: TGI

For orientation, consider the following solved cases.
{"columns": ["compound", "quantity", "result"],
 "data": [
  ["CCOC(=O)C(C(=O)OCC)C(=O)c1ccccc1C(=O)c1ccccc1", "TGI", "> 100 µM"],
  ["O=C1CS(=O)(=O)C(c2cccc(Oc3ccccc3)c2)N1c1ccccc1 (stereo unspecified)", "TGI", "> 100 µM"],
  ["O=C(N/N=C(/COc1ccccc1Cl)N=Cc1ccncc1)c1ccncc1", "TGI", "98.7 µM"],
  ["CCCN(CCC)C1CCc2c(ccc3cc[nH]c23)C1 (stereo unspecified)", "TGI", "> 100 µM"],
  ["COc1cccc(C2SC(C)C(=O)N2CCc2cccs2)c1 (stereo unspecified)", "TGI", "15.7 µM"],
  ["Cc1cnccc1N=Nc1ccc(N(C)C)cc1", "TGI", "46.2 µM"],
  ["Cc1ncc(CCl)c(CCl)c1O", "TGI", "> 100 µM"],
  ["CC(=O)OCC12CCC3C4(C)CCCC(C)(C)C4CCC3(C)C1CC(C1=CC(=O)OC1O)O2 (stereo unspecified)", "TGI", "3.32 µM"]
]}

# per-item lookup of TGI; items listed below
1. CCOc1ccc(/C=C2\NC(=S)N(/C=C3\C(=O)Oc4ccccc4C3=O)C2=O)cc1
2. C=Cc1nc(C#N)c(N)o1
3. Cn1c(=O)c(C(=O)NC(=O)NCCCCCOC(=O)CCCCCCCCCCC(=O)OCCCCCNC(=O)NC(=O)c2cn(Cc3ccccc3)c(=O)n(C)c2=O)cn(Cc2ccccc2)c1=O
4. CN[C@@H](C)[C@@H](O)c1ccccc1

**Result**
1: 61.6 µM; 2: > 100 µM; 3: > 100 µM; 4: > 100 µM

* * *

tested on: UACC-257 melanoma; assay: NCI tumour cell line growth inhibition, 48 h; in the data active = GI50 below about 0.43 µM; inactive = the rest
Give your call using only these classes: 1 (active), 0 (inactive)

{"columns": ["compound", "answer_label"],
 "data": [
  ["CC(=O)OC(C)c1cc2c(s1)C(=O)c1c(C(C)OC(C)=O)csc1C2=O (configuration not stated)", 0],
  ["CC1(C)CC([P+](c2ccccc2)(c2ccccc2)c2ccccc2)=NN1", 0],
  ["CCOc1nccc2c1nc(-c1nonc1N)n2CC", 0],
  ["CCN(CC)CCn1c2ccc(OC)cc2c2sc3cc(OC)ccc3c(=O)c21", 0],
  ["Nc1nccc2c1ncn2C1OC(CO)C(O)C1O (configuration not stated)", 0],
  ["O=C(N/N=C/c1ccc(Cl)cc1Cl)c1ccc2nc(-c3ccc(Cl)cc3)[nH]c2c1", 0],
  ["CC(C)C[C@H](NC(=O)[C@@H](NC(=O)c1cccc(-c2ccccc2)n1)[C@@H](C)O)B(O)O", 1],
  ["COc1cccc(CCC(=O)c2cc3c(N)c(C(=O)Nc4cccc(Cl)c4C)sc3nc2C)c1", 0],
  ["COc1cccc(N=N/C(=N\\NC(=O)c2cc(Br)ccc2O)c2ccc(N(CCC#N)CCC#N)cc2OC)c1", 0],
  ["CC(C)C[C@H](NC(=O)CCn1ccc2ncccc2c1=O)B(O)O", 0]
]}

**Query** Please share the test call associated with N#C/C(=C\c1c(-c2ccccc2)[nH]c2ccccc12)C(=O)c1ccccc1 .
**Result** 0

**Query** What is the recorded call for this compound in the test? CC(C)C(=O)[O-].CC(C)C(=O)[O-].N.N.N.N.[Co+3].[O-][Cl+3]([O-])([O-])[O-]
**Result** 0

**Query** Called result for CN(C)CCCCn1ccc2c1C(=O)c1c(c(O)c3ccccc3c1O)C2=O
**Result** 0

**Query** Could you kindly confirm the outcome this assay logged for O=c1oc2c3ccc4cnccc4c3[nH]c2c2ccccc12 ?
**Result** 0

**Query** Fill in: this test's call for COc1c(Cl)ccc2c(-c3nc4cc(Cl)c(F)cc4s3)cc(=O)oc12 is ___
**Result** 0

**Query** Called result for FC(F)(F)c1cccc2c(SCCc3n[nH]c(=S)o3)ccnc12
**Result** 0

**Query** Hi, do you know how C=C1C(OC/C=C/COC2O[C@@H]3O[C@@]4(C)CC[C@H]5[C@H](C)CC[C@@H](C2=C)[C@@]35OO4)O[C@@H]2O[C@@]3(C)CC[C@H]4[C@H](C)CC[C@@H]1[C@@]24OO3 (some centres not stated) came out in this test?
**Result** 0

* * *

Let's go through some GI50 measurements on MDA-MB-435 together.

{"columns": ["compound", "measured_target", "GI50"],
 "data": [
  ["Cc1ccc2nc(-c3ccc(N)c4ccccc34)[nH]c2c1", "MDA-MB-435", "0.187 µM"],
  ["CN(C)CCCCn1ccc2c1C(=O)c1c(c(O)c3ccccc3c1O)C2=O", "MDA-MB-435", "2.01 µM"],
  ["NCCCN1CCN(CCCNc2nc3ccccc3c3[nH]c4ccccc4c23)CC1", "MDA-MB-435", "0.651 µM"],
  ["CC(=O)OC(C)c1cc2c(s1)C(=O)c1c(C(C)OC(C)=O)csc1C2=O (stereo not given)", "MDA-MB-435", "0.185 µM"],
  ["O=C(COc1cccc(/C=C2\\Oc3ccc4ccccc4c3C2=O)c1)c1ccc(Cl)cc1", "MDA-MB-435", "51 µM"]
]}

Go through the list and state GI50 for each entry.
1. O=c1oc2c3ccc4cnccc4c3[nH]c2c2ccccc12
2. CCOc1nccc2c1nc(-c1nonc1N)n2CC
3. COc1ccc2c(c1)c(-c1ccc(-c3cn(C)c4ccc(OC)cc34)[nH]1)cn2C
4. O=S(=O)(NC1=NCCN1C(=S)SN1CCn2c1nsc2=S)c1ccccc1Cl
5. COc1cc(C2CC(=O)Nc3c2ccc2ccccc32)cc(Br)c1OC (stereo not given)
6. COc1cccc(C2SC(C)C(=O)N2CCc2cccs2)c1 (stereo not given)

**Result**
1. 18.1 µM
2. > 25 µM
3. 4.92 µM
4. 8.67 µM
5. 0.138 µM
6. 2.16 µM

* * *

tested on: SNB-75 CNS; experiment: NCI tumour cell line growth inhibition, 48 h
Answer each item with its documented GI50.

Some solved entries appear below for comparison.
{"columns": ["substance_smiles", "GI50"],
 "data": [
  ["O=c1oc2c3ccc4cnccc4c3[nH]c2c2ccccc12", "20.6 µM"],
  ["COc1c(Cl)ccc2c(-c3nc4cc(Cl)c(F)cc4s3)cc(=O)oc12", "1.56 µM"]
]}

Hey, can you go through the list below and give me GI50 for every item?
1. Cc1cc(N(CCCNc2ccnc3cc(Cl)ccc23)Cc2ccc3c(c2)OCO3)nc(N2CCCCC2)n1
2. O=C(CCSc1ccnc2c(C(F)(F)F)cccc12)N/N=C/c1cc(Cl)c(Cl)cc1Cl

**Result**
["1.47 µM", "20 µM"]

Each compound below has a recorded value; state its GI50.
1. Nc1c(C(=O)N/N=C/c2ccc(-c3cc(Cl)c(Cl)cc3Cl)o2)cnn1-c1ccnc2c(C(F)(F)F)cccc12
2. NC(=O)c1ccccc1NC(=O)c1ccccc1Cl
3. CN(C)CCCCn1ccc2c1C(=O)c1c(c(O)c3ccccc3c1O)C2=O
4. FC(F)(F)c1cccc2c(SCCc3n[nH]c(=S)o3)ccnc12

**Result**
["4.01 µM", "> 100 µM", "15.8 µM", "36.3 µM"]

* * *

test system: MDA-MB-231 breast; assay: NCI tumour cell line growth inhibition, 48 h
Give TGI for every item shown.
One number for each entry, in µM.

These recorded examples may help you get a feel for the data.
{"columns": ["molecule", "quantity", "unit_info", "readout_number"],
 "data": [
  ["COc1ccc(-c2ccc(-c3ccc(C(=N)N)cn3)o2)cc1Cl", "TGI", "µM", 3.41],
  ["CN(C)CC1CCC/C(=C\\c2ccc(OC(=O)/C=C/c3ccc(Cl)c(Cl)c3)cc2)C1=O (stereo unspecified)", "TGI", "µM", 11.9],
  ["CCN(CC)CCn1c2ccc(OC)cc2c2sc3cc(OC)ccc3c(=O)c21", "TGI", "µM", 3.31],
  ["CCC(=O)/C(=C\\I)c1ccccc1", "TGI", "µM", 3.29],
  ["O=c1oc2c3ccc4cnccc4c3[nH]c2c2ccccc12", "TGI", "µM", 38.5]
]}

Parameter requested: TGI. Apply to each item below.
1. O=C(N/N=C/c1ccc(Cl)cc1Cl)c1ccc2nc(-c3ccc(Cl)cc3)[nH]c2c1
2. Nc1ccc(C(OC(=O)c2cc3ccccc3c(Cc3c(O)c(C(=O)OC(c4ccc(N)cc4)(c4ccc(N)cc4)c4ccc(N)cc4)cc4ccccc34)c2O)(c2ccc(N)cc2)c2ccc(N)cc2)cc1

**Result**
1. 3.77
2. 8.76

* * *

tested on: HOP-62 NSCLC; assay: NCI tumour cell line growth inhibition, 48 h
For each record, write down the corresponding TGI.

{"columns": ["compound", "quantity", "result"],
 "data": [
  ["COc1cc(NC(=O)NCc2ccco2)ccc1-c1ccc(NC(=O)NCc2ccco2)cc1OC", "TGI", "11.3 µM"],
  ["CCc1ccc2nccc(NCCCN(C)C)c2c1[N+](=O)[O-]", "TGI", "> 100 µM"],
  ["O=C1C2=C(SCCS2)C(=O)c2c(Sc3ccc(Cl)cc3)c(Sc3ccc(Cl)cc3)c(Sc3ccc(Cl)cc3)c(Sc3ccc(Cl)cc3)c21", "TGI", "> 100 µM"],
  ["COP(=O)(O)C(N)Cc1c[nH]c2ccccc12 (stereo unspecified)", "TGI", "> 100 µM"],
  ["COc1nc2c(nc(N)n2C2OCC(O)C(O)C2O)c(=O)n1C (stereo unspecified)", "TGI", "> 100 µM"]
]}

Record TGI for all entries; do not skip any.
1. CC1=CCC[C@H]2[C@](C)(CC3=CC(=O)C(Sc4ccccc4)=CC3=O)[C@@H](C)CC[C@]12C
2. O=c1cccccc1[O-].O=c1cccccc1[O-].O=c1cccccc1[O-].[Ce+3]

**Result**
1: 32.6 µM; 2: 45.3 µM

// input: 7 compounds below; output: TGI for each
1. O=C(Nc1ccc(Br)cc1)C(=O)C(C(=O)c1ccccc1F)C1OC(=O)c2ccccc21 (stereo unspecified)
2. COC(=O)c1ccccc1C1=C([N+](=O)[O-])C(c2ccccc2)C(C#N)=C(N)O1 (stereo unspecified)
3. COc1c2ccsc2c(OC)c2ccsc12
4. CS(=O)(=O)N(CCC#N)c1ccc(C=O)cc1
5. Nc1nccc2c1ncn2C1OC(CO)C(O)C1O (stereo unspecified)
6. Cc1c(-c2nnc(-c3ccccc3)o2)c(=O)n(-c2ccccc2)n1C
7. CS/C(c1ccccc1)=[N+](\[O-])Cc1ccccc1

**Result**
1. 50.8 µM
2. > 100 µM
3. > 100 µM
4. > 100 µM
5. > 100 µM
6. > 100 µM
7. > 100 µM

Below is a list of compounds. For each, state its recorded TGI.
1. Cc1cc2oc(C)c(S(=O)(=O)NC(=O)Nc3ccc(Cl)cc3)c(=O)c2c(=O)o1
2. COc1cc(F)c(/C=C/c2cc(/C=C/c3cc(OC)c(OC)cc3F)n(-c3cc(F)cc(F)c3)n2)cc1OC
3. Cc1cc(N(CCC#N)CCC#N)ccc1/C=C1\SC(=S)NC1=O

**Result**
> 100 µM
17.1 µM
> 100 µM
